- Experiment description: Human HepG2 cell viability assay in 384 well format
- Assay type: toxicity, cell-based
- Design: dose 125 nL, time 70.5 hour; concentration not given beside the values
- Condition label: HepG2 cells, read-out: Inhibition
Assay readout: cytotoxicity at 70.5 h (%)
Use % as the unit, but write only the number.

# Compound, Units symbol, cytotoxicity at 70.5 h
rows = [
    ("Cc1noc(Cl)c1CC(=O)N1CCC(Nc2cccnn2)CC1", "%", -1.04),
    ("N#Cc1nccnc1N1CCC(C(O)c2cccs2)CC1 (centres undefined)", "%", 10.4),
    ("CN(Cc1cn(-c2ccccc2)nn1)C1CCCN(c2cccnn2)C1 (centres undefined)", "%", -3.67),
]

Could you now consider this next compound?
Qu. Which cytotoxicity at 70.5 h is reported for this compound? CCOCC(=O)N(C)Cc1nc(C(F)(F)F)cs1
Ans. 20.5

These entries and their values trace back to ChEMBL document CHEMBL3507680.
